Assay: ATG_EGR_CIS: Attagene CIS-FACTORIAL HepG2 Assay for human Early Growth Response 1 (EGR1) (AID 2282938)
Details: HepG2 Attagene CIS-FACTORIAL EGR reporter mRNA; actives raise or lower the signal
Calls of active or inactive are those of the source. The calls were made as follows: active = hit-call score of the fitted dose curve at least 0.9, where 1 is the maximum; inactive = score below 0.9.
Respond using exactly one of the listed classes: True for active, False for inactive

{"compound": "O=C(OCCCCCCOC(=O)c1ccccc1)c1ccccc1", "class": "False"}
{"compound": "CN(C)C(=O)C1(N2CCCCC2)CCN(CC[C@@]2(c3ccc(Cl)c(Cl)c3)CN(C(=O)c3ccccc3)CCO2)CC1", "class": "False"}
{"compound": "COc1cccc([C@H](O)C2CCN(CCc3ccc(F)cc3)CC2)c1OC", "class": "False"}
{"compound": "CCCCCCCCN(C)CCCCCCCC", "class": "False"}
{"compound": "Cc1cc2c(cc1C(F)(F)F)N(C(=O)Nc1ccc(Oc3cccnc3C)nc1)CC2", "class": "False"}
{"compound": "COCC(C)OCC(C)OCC(C)O (stereo unspecified)", "class": "False"}

Now consider the entry below.
Exercise: Check the results log: what was the call for O=C(O)c1ccccc1-n1cc(C(=O)O)c(=O)c2cc(Nc3c(F)cc(F)cc3Cl)c(Cl)cc21 ?
Key: False

* * *

AC50 reference
Read-out: ABC Transporter (ABCB1), ABCB1 (gene 5243)
Test: LTEA_HepaRG_ABCB1: Life Technologies and Expression Analysis (LTEA) Assay for ABC Transporter (ABCB1) using HepaRG (AID 2283460)
Conditions: mRNA level, 48 h; actives raise or lower the signal
Active and inactive are the calls of the source. Rule for the calls: active = hit-call score of the fitted dose curve at least 0.9, where 1 is the maximum; inactive = score below 0.9.

Sample answers from the record:
{"smiles_representation": "CCN(CC)C(=O)c1cc(S(=O)(=O)Cc2ccccc2)c(N2CCC(c3ccccc3)CC2)cc1N(CC)CCN(C)C", "parameter_measured": "AC50", "result": "35.1 µM (active)"}
{"smiles_representation": "CC1(C)NC(=O)N(c2ccc([N+](=O)[O-])c(C(F)(F)F)c2)C1=O", "parameter_measured": "AC50", "result": "50 µM (active)"}

Field: next molecule
Exercise: Which AC50 reading was recorded for the molecule CO[C@H]1/C=C/O[C@@]2(C)Oc3c(C)c(O)c4c(O)c(c(/C=N/N5CCN(C)CC5)c(O)c4c3C2=O)NC(=O)/C(C)=C\C=C\[C@H](C)[C@H](O)[C@@H](C)[C@@H](O)[C@@H](C)[C@H](OC(C)=O)[C@@H]1C ?
Key: 0.442 µM (active)

* * *

Read-out: Phosphatase and tensin (PTEN), PTEN (gene 5728)
Test: LTEA_HepaRG_PTEN: Life Technologies and Expression Analysis (LTEA) Assay for Phosphatase and tensin (PTEN) using HepaRG (AID 2283523)
Details: mRNA level, 48 h; actives raise or lower the signal
Active and inactive are the calls of the source. Rule for the calls: active = hit-call score of the fitted dose curve at least 0.9, where 1 is the maximum; inactive = score below 0.9.
Respond using exactly one of the listed classes: TRUE = active, FALSE = inactive

{"molecule": "Cc1cccc2ccccc12", "class": "FALSE"}

Exercise: Check the results log: what was the call for CC[C@@H]1C[C@H](N(Cc2cc(C(F)(F)F)cc(C(F)(F)F)c2)C(C)=O)c2cc(C(F)(F)F)ccc2N1C(=O)OC(C)C ?
Key: FALSE

Exercise: Check the results log: what was the call for CCCCCCCC[Si](OCC)(OCC)OCC ?
Key: FALSE

Exercise: Check the results log: what was the call for COCC(C)OCC(C)OCC(C)O (configuration not stated) ?
Key: FALSE

Exercise: Check the results log: what was the call for CCCCOC(=O)CC(CC(=O)OCCCC)(OC(C)=O)C(=O)OCCCC ?
Key: FALSE

Exercise: Check the results log: what was the call for c1ccc(C[n+]2cccc3ccccc32)cc1 ?
Key: FALSE

Exercise: Check the results log: what was the call for CN1C(=O)N(c2ccccc2Br)Cc2cnc(Nc3ccc4c(c3)OCC(CO)O4)nc21 (configuration not stated) ?
Key: FALSE

Exercise: Check the results log: what was the call for CC(O)CC(C)(C)O (configuration not stated) ?
Key: FALSE
